# credit: paper PMC8615111

# PROTOCOL_DESCRIPTION: Fe^2+ chelation assay
# Format: biochemical
# PROTOCOL_CONDITIONS: 100 µg/mL
MEASUREMENT_NAME: Chelation Capacity (%), ferrous ions
Respond with the bare value in %.

q: Would you mind telling me what Chelation Capacity (%), ferrous ions value was observed for `Br.Oc1ccc(/C=N/Nc2nc(-c3ccccc3)cs2)c(O)c1` ?
a: 4.84

q: Now consider `Br.C/C(=N\Nc1nc(-c2ccc(O)c(C(N)=O)c2)cs1)c1ccc(O)cc1O` .
a: 1.73

q: Now consider `Cl.Oc1ccc(/C=N/Nc2nc(-c3ccc(O)c(O)c3)cs2)c(O)c1` .
a: 18.15

q: Now consider `Br.C/C(=N\Nc1nc(-c2ccccc2)cs1)c1ccc(O)cc1O` .
a: 7.14

q: Now consider `Br.NC(=O)c1cc(-c2csc(N/N=C/c3ccc(O)cc3O)n2)ccc1O` .
a: 3.44

q: Now consider `Cc1csc(N/N=C/c2ccc(O)cc2O)n1.Cl` .
a: 8.95

q: Now consider `C/C(=N\Nc1nc(-c2ccc(O)c(O)c2)cs1)c1ccc(O)cc1O.Cl` .
a: 12.28

###

# PROTOCOL_DESCRIPTION: DPPH˙ radical scavenging assay
# Type: biochemical
# PROTOCOL_CONDITIONS: 5 µg/mL
Consider the following compounds; for each one, report its % of DPPH˙ Scavenged.
Respond with the bare value in %.

q: Would you mind telling me what % of DPPH˙ Scavenged value was observed for `C/C(=N\Nc1nc(-c2ccc(O)c(O)c2)cs1)c1ccc(O)cc1O.Cl` ?
a: 68.90

q: Now consider `Br.NC(=O)c1cc(-c2csc(N/N=C/c3ccc(O)cc3O)n2)ccc1O` .
a: 51.80

q: Now consider `Cl.Oc1ccc(/C=N/Nc2nc(-c3ccc(O)c(O)c3)cs2)c(O)c1` .
a: 91.38

q: Now consider `Br.C/C(=N\Nc1nc(-c2ccc(O)c(C(N)=O)c2)cs1)c1ccc(O)cc1O` .
a: 49.27

q: Now consider `Br.Oc1ccc(/C=N/Nc2nc(-c3ccccc3)cs2)c(O)c1` .
a: 41.22

###

# PROTOCOL_DESCRIPTION: Ferric ions (Fe^3+) reducing antioxidant power by cyclic voltammetry
# PROTOCOL_CONDITIONS: compound alone 0.5 mM in 0.1 M HClO4; 2nd Eox
MEASUREMENT_NAME: Eox (V)
Respond with the bare value in V.

q: Would you mind telling me what Eox (V) value was observed for `C/C(=N\Nc1nc(C)cs1)c1ccc(O)cc1O` ?
a: 0.308

q: Now consider `Br.Oc1ccc(/C=N/Nc2nc(-c3ccccc3)cs2)c(O)c1` .
a: 0.386

q: Now consider `C/C(=N\Nc1nc(-c2ccc(O)c(O)c2)cs1)c1ccc(O)cc1O.Cl` .
a: 0.195

q: Now consider `Cl.Oc1ccc(/C=N/Nc2nc(-c3ccc(O)c(O)c3)cs2)c(O)c1` .
a: 0.249

q: Now consider `Br.NC(=O)c1cc(-c2csc(N/N=C/c3ccc(O)cc3O)n2)ccc1O` .
a: 0.347

q: Now consider `Cc1csc(N/N=C/c2ccc(O)cc2O)n1.Cl` .
a: 0.355

###

# PROTOCOL_DESCRIPTION: Ferric ions (Fe^3+) reducing antioxidant power by cyclic voltammetry
# PROTOCOL_CONDITIONS: compound alone 0.5 mM in 0.1 M HClO4; 2nd Ired
MEASUREMENT_NAME: Ired (μA)
Respond with the bare value in μA.

q: Would you mind telling me what Ired (μA) value was observed for Cl.Oc1ccc(/C=N/Nc2nc(-c3ccc(O)c(O)c3)cs2)c(O)c1 [Compound 8b] ?
a: −1.97

q: Now consider C/C(=N\Nc1nc(-c2ccc(O)c(O)c2)cs1)c1ccc(O)cc1O.Cl [Compound 8a] .
a: −5.09

q: Now consider C/C(=N\Nc1nc(C)cs1)c1ccc(O)cc1O [Compound 5a] .
a: −1.23

q: Now consider Cc1csc(N/N=C/c2ccc(O)cc2O)n1.Cl [Compound 5b] .
a: −1.56

###

Consider the following molecules; for each one, report its Ired (μA).
# PROTOCOL_DESCRIPTION: Cyclic voltammetry of the compounds on graphite-based SPE
# Assay type: physicochemical
# PROTOCOL_CONDITIONS: 3rd reduction peak; CV, 0.1 M HClO4, graphite-based SPE
Respond with the bare value in μA.

q: Would you mind telling me what Ired (μA) value was observed for `Br.Oc1ccc(/C=N/Nc2nc(-c3ccccc3)cs2)c(O)c1` ?
a: −5.91

q: Now consider `Cc1csc(N/N=C/c2ccc(O)cc2O)n1.Cl` .
a: −2.86

q: Now consider `Br.C/C(=N\Nc1nc(-c2ccccc2)cs1)c1ccc(O)cc1O` .
a: −1.19

q: Now consider `C/C(=N\Nc1nc(C)cs1)c1ccc(O)cc1O` .
a: −2.17

q: Now consider `Cl.Oc1ccc(/C=N/Nc2nc(-c3ccc(O)c(O)c3)cs2)c(O)c1` .
a: −40.37

q: Now consider `Br.NC(=O)c1cc(-c2csc(N/N=C/c3ccc(O)cc3O)n2)ccc1O` .
a: 0.201

q: Now consider `C/C(=N\Nc1nc(-c2ccc(O)c(O)c2)cs1)c1ccc(O)cc1O.Cl` .
a: −38.91

###

Consider the following molecules; for each one, report its Ered (V).
# PROTOCOL_DESCRIPTION: DPPH˙ radical scavenging by cyclic voltammetry
# PROTOCOL_CONDITIONS: compound alone; 2nd Ered column
# Description: […] The radical scavenging properties of the novel compounds and the other antioxidants were determined using a stock DPPH˙ radical solution prepared in absolute ethanol. […] The remaining redox activity of DPPH was measured by cycling the potential between −0.7 V and 1.2 V, with a scan rate of 0.1 V/s. […]
Respond with the bare value in V.

q: Would you mind telling me what Ered (V) value was observed for C/C(=N\Nc1nc(C)cs1)c1ccc(O)cc1O [Compound 5a] ?
a: 0.137

q: Now consider Cl.Oc1ccc(/C=N/Nc2nc(-c3ccc(O)c(O)c3)cs2)c(O)c1 [Compound 8b] .
a: 0.127

q: Now consider Br.C/C(=N\Nc1nc(-c2ccccc2)cs1)c1ccc(O)cc1O [Compound 6a] .
a: 0.193

q: Now consider C/C(=N\Nc1nc(-c2ccc(O)c(O)c2)cs1)c1ccc(O)cc1O.Cl [Compound 8a] .
a: 0.278

q: Now consider Br.NC(=O)c1cc(-c2csc(N/N=C/c3ccc(O)cc3O)n2)ccc1O [Compound 7b] .
a: 0.276

q: Now consider Br.Oc1ccc(/C=N/Nc2nc(-c3ccccc3)cs2)c(O)c1 [Compound 6b] .
a: 0.239

q: Now consider Cc1csc(N/N=C/c2ccc(O)cc2O)n1.Cl [Compound 5b] .
a: 0.11

q: Now consider Br.C/C(=N\Nc1nc(-c2ccc(O)c(C(N)=O)c2)cs1)c1ccc(O)cc1O [Compound 7a] .
a: 0.217

###

# PROTOCOL_DESCRIPTION: Cyclic voltammetry of the compounds on graphite-based SPE
# Assay type: physicochemical
# PROTOCOL_CONDITIONS: 2nd reduction peak; CV, 0.1 M HClO4, graphite-based SPE
MEASUREMENT_NAME: Ired (μA)
Respond with the bare value in μA.

q: Would you mind telling me what Ired (μA) value was observed for Br.C/C(=N\Nc1nc(-c2ccccc2)cs1)c1ccc(O)cc1O [Compound 6a] ?
a: −6.84

q: Now consider Br.Oc1ccc(/C=N/Nc2nc(-c3ccccc3)cs2)c(O)c1 [Compound 6b] .
a: −1.49

q: Now consider Cc1csc(N/N=C/c2ccc(O)cc2O)n1.Cl [Compound 5b] .
a: −0.68

q: Now consider Br.NC(=O)c1cc(-c2csc(N/N=C/c3ccc(O)cc3O)n2)ccc1O [Compound 7b] .
a: 0.078

q: Now consider C/C(=N\Nc1nc(-c2ccc(O)c(O)c2)cs1)c1ccc(O)cc1O.Cl [Compound 8a] .
a: −4.79

q: Now consider Br.C/C(=N\Nc1nc(-c2ccc(O)c(C(N)=O)c2)cs1)c1ccc(O)cc1O [Compound 7a] .
a: −4.65

###

Consider the following molecules; for each one, report its Eox (V).
# PROTOCOL_DESCRIPTION: Ferric ions (Fe^3+) reducing antioxidant power by cyclic voltammetry
# PROTOCOL_CONDITIONS: compound + Fe^3+/Fe^2+; 2nd Eox
Respond with the bare value in V.

q: Would you mind telling me what Eox (V) value was observed for `C/C(=N\Nc1nc(C)cs1)c1ccc(O)cc1O` ?
a: 0.308

q: Now consider `Br.C/C(=N\Nc1nc(-c2ccccc2)cs1)c1ccc(O)cc1O` .
a: 0.223

q: Now consider `Br.Oc1ccc(/C=N/Nc2nc(-c3ccccc3)cs2)c(O)c1` .
a: 0.325

q: Now consider `Cl.Oc1ccc(/C=N/Nc2nc(-c3ccc(O)c(O)c3)cs2)c(O)c1` .
a: 0.227

q: Now consider `Cc1csc(N/N=C/c2ccc(O)cc2O)n1.Cl` .
a: 0.342

q: Now consider `Br.NC(=O)c1cc(-c2csc(N/N=C/c3ccc(O)cc3O)n2)ccc1O` .
a: 0.305

q: Now consider `Br.C/C(=N\Nc1nc(-c2ccc(O)c(C(N)=O)c2)cs1)c1ccc(O)cc1O` .
a: 0.23

q: Now consider `C/C(=N\Nc1nc(-c2ccc(O)c(O)c2)cs1)c1ccc(O)cc1O.Cl` .
a: 0.186
